Tested on: MDA-MB-231
Assay: Antiproliferative activity against human MDA-MB-231 cells incubated for 48 hrs by MTT assay
Type: functional, cell-based
Conditions: MDA-MB-231, 48 h
pIC50: −log10 of the molar value.
property measured: pIC50

Which pIC50 reading was recorded for the molecule "Cc1ncc(-c2ccnc(Nc3ccc(S(C)(=O)=O)cc3)n2)n1C(C)C" ?
5.14

# query: pIC50 of entry "Cc1cnc(Nc2ccc(S(C)(=O)=O)cc2)nc1Nc1nc2ccc(Cl)cc2s1"
5.23

I'd like to know its pIC50. The molecule in question is "Cc1cnc(Nc2ccc(N3CCCCC3)cc2)nc1Nc1nc2ccccc2s1"
4.43

# get_value(readout='pIC50', item= "COc1ccc2nc(Nc3ccnc(Nc4ccc(S(C)(=O)=O)cc4)n3)sc2c1" )
4.48

Return reported pIC50; argument: "Cc1cnc(Nc2ccc(S(N)(=O)=O)cc2)nc1Nc1nc2ccccc2s1"
4.78

(A) Cc1cnc(Nc2ccc([N+](=O)[O-])cc2)nc1Nc1nc2ccccc2s1
(B) CS(=O)(=O)c1ccc(Nc2nccc(Nc3nc4ccccc4s3)n2)cc1
Please let me know which one, A or B , has a lower measured pIC50 value. When you have decided, please share the label of that item.
A
(A: 4.65, B: 5.23)

---

Tested on: HeLa
Assay: Antiproliferative activity against human HeLa cells incubated for 48 hrs by MTT assay
Assay type: functional, cell-based
property measured: IC50 (µM)

In the examples that follow, each entry is paired with its recorded IC50.
For "NS(=O)(=O)c1ccc(Nc2nccc(Nc3nc4ccccc4s3)n2)cc1" , what is its reported IC50?
2.06

Requested field: IC50. Item: "CS(=O)(=O)c1ccc(Nc2nccc(Nc3nc4ccccc4s3)n2)cc1"
11.3

Look at this compound and give its reported IC50. "COc1ccc2nc(Nc3nc(Nc4ccc(S(C)(=O)=O)cc4)ncc3F)sc2c1"
25.4

Entry under review: "Cc1cnc(Nc2ccc(S(N)(=O)=O)cc2)nc1Nc1nc2ccccc2s1" . Reported IC50?
2.8

// lookup IC50 for "CS(=O)(=O)c1ccc(Nc2ncc(F)c(Nc3nc4ccccc4s3)n2)cc1"
3.17

Any idea what IC50 was measured for "Cc1ccc2nc(Nc3nc(Nc4ccc(S(C)(=O)=O)cc4)ncc3F)sc2c1" ?
17.2

(1) COc1ccc2nc(Nc3ccnc(Nc4ccc(S(C)(=O)=O)cc4)n3)sc2c1
(2) Cc1cnc(Nc2ccc(S(C)(=O)=O)cc2)nc1Nc1nc2ccccc2s1
Which record shows the lower IC50: the first, 1 , or the second, 2 ? Respond using the label that marks the chosen record.
2
(2: 0.46 µM, 1: 4.13 µM)

(a) Cc1ccc2nc(Nc3ccnc(Nc4ccc(S(C)(=O)=O)cc4)n3)sc2c1
(b) NS(=O)(=O)c1ccc(Nc2nccc(Nc3nc4ccc(F)cc4s3)n2)cc1
(c) Cc1cnc(Nc2ccc(N3CCCCC3)cc2)nc1Nc1nc2ccccc2s1
(d) CS(=O)(=O)c1ccc(Nc2nccc(Nc3nc4ccc(Cl)cc4s3)n2)cc1
Order each entry by recorded IC50, climbing from the minimum. # respond with the labels, arranged in the requested order
b, d, a, c

(a) COc1ccc2nc(Nc3ccnc(Nc4ccc(S(N)(=O)=O)cc4)n3)sc2c1
(b) Cc1ccc2nc(Nc3nc(Nc4ccc(S(N)(=O)=O)cc4)ncc3C)sc2c1
Consider a and b . Which of these has its IC50 at a higher number? Write the label of whichever entry you select.
b
(b: 3.28 µM, a: 1.73 µM)

(1) Cc1ccc2nc(Nc3nc(Nc4ccc(S(N)(=O)=O)cc4)ncc3F)sc2c1
(2) Cc1cnc(Nc2ccc(S(N)(=O)=O)cc2)nc1Nc1nc2ccc(Cl)cc2s1
(3) Cc1cnc(Nc2cccc(F)c2)nc1Nc1nc2ccccc2s1
(4) CS(=O)(=O)c1ccc(Nc2nccc(Nc3nc4ccc(F)cc4s3)n2)cc1
Could you please sort these 4 entries by IC50 from high to low? # format: label list in the order the request specifies
3, 2, 1, 4

(a) NS(=O)(=O)c1ccc(Nc2ncc(F)c(Nc3nc4ccccc4s3)n2)cc1
(b) COc1ccc2nc(Nc3nc(Nc4ccc(S(N)(=O)=O)cc4)ncc3C)sc2c1
(c) Cc1ncc(-c2ccnc(Nc3ccc(S(C)(=O)=O)cc3)n2)n1C(C)C
(d) COc1ccc2nc(Nc3nc(Nc4ccc(S(N)(=O)=O)cc4)ncc3F)sc2c1
Descending sort on IC50 required. Order the labels as requested and give them as your answer.
b, d, a, c

(A) Cc1cnc(Nc2ccc(S(C)(=O)=O)cc2)nc1Nc1nc2ccc(Cl)cc2s1
(B) Cc1cnc(Nc2ccc([N+](=O)[O-])cc2)nc1Nc1nc2ccccc2s1
Would you let me know which has the greater IC50 value, A or B ? Respond with the label that goes with your answer.
B

(A) Cc1cnc(Nc2ccc(S(N)(=O)=O)cc2)nc1Nc1nc2ccc(F)cc2s1
(B) Cc1ccc2nc(Nc3ccnc(Nc4ccc(S(N)(=O)=O)cc4)n3)sc2c1
Decide: A or B , by lowest recorded IC50. The response must carry the label of the picked entry.
B
